# assay.system: KRas G12V (Homo sapiens, UniProt P01116, G12V);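 further: KRas binding measured by TR-FRET displacement at room temperature, IC50 fitted from percent of control values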
# Sequence (P01116 1-169 isoform P01116-2 G12V): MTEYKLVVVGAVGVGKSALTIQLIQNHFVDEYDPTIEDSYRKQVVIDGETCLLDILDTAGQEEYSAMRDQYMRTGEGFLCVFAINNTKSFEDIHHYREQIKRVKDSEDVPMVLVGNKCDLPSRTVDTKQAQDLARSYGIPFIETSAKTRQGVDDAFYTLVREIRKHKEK
# protocol: biochemical
measurement.kind: IC50 (nM)
Just the number please, in nM, no unit attached.

Here are 2 molecules together with their reported answers.
O=C1CC2(CCCN(c3nc(OCC45CCCN4CCC5)nc4c(F)c(-c5cccc6cccc(C(F)(F)F)c56)ncc34)C2)N1 (stereo not drawn)    651
Cc1cc2[nH]ncc2c(-c2ncc3c(N4CCC[C@@](C)(O)C4)nc(OCC4(CN(C)C)CC4)nc3c2F)c1C    614

The molecule listed as CCc1cccc2cccc(-c3ncc4c(N5CCOCC(CO)C5)nc(OCC56CCCN5CCC6)nc4c3F)c12 (stereo not drawn) has a reported IC50 of 807

The measured values listed here are drawn from patent US12398154B2.
